- target or system: T1, recombinant tetrameric Mad1(485–718)/Mad2 complex (human | , UniProt Q9Y6D9 485-718; Q13257 1-205)
- T1 construct: Printed as 'tetrameric'; two copies of each chain are inferred; source: E. coli BL21(DE3), purified (HiTrap Ni column, Mono Q, Superdex 75); copies: 2 + 2
- T1 sequence (Q9Y6D9 485-718, chain 1 of 2): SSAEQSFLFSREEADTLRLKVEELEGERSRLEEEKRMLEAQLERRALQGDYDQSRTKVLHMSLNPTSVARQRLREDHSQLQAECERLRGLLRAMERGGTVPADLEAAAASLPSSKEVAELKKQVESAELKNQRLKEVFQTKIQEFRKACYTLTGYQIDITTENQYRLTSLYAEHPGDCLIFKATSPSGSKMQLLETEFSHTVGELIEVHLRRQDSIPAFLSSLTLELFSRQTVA
- T1 sequence (Q13257 whole entry, chain 2 of 2): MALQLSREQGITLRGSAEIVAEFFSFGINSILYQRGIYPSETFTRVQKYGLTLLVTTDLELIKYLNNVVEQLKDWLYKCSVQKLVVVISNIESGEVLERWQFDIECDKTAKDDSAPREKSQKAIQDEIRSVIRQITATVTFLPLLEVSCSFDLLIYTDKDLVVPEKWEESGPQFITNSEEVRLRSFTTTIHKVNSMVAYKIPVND
- run description: SPR; N-terminally biotinylated Bub1 peptides captured (~50 RU) on a streptavidin-coated CM5 chip, Mad1 proteins injected; Biacore T200, 25 °C; 25 mM Tris pH 7.8, 150 mM NaCl, 10 mM MgCl2, 0.25 M TCEP, 0.005% Surfactant P-20; steady-state affinity model
- experimental context: both partners purified
Square brackets hold non-standard residues; d marks the D form. Ends that are not written are not given here. * marks the point of attachment. Biotin = O=C1N[C@H]2[C@H](CS[C@H]2CCCCC(=O)*)N1; pT = C[C@@H](OP(=O)(O)O)[C@H](N)C(=O)O; Nle = CCCC[C@H](N)C(=O)O
measurement type: Kd (µM)
Numbers only, in µM.

input: Give recorded Kd. Biotin-VQATPSKVQPSP[pT]VHTKEALGFI[Nle]N[Nle]FQAPTL (peptide, UniProt O43683 449-480, looked up, Bub1, human, residues 449–480; also called pT461; Bub1 pT461 peptide; source: synthetic peptide, bought: Biosyntan Gmbh) [CD1 peptide phosphorylated on Thr461]
output: 72

Cited source: paper PMC5472792
